Below, each entry is listed alongside its reported composite z-score.
- subjectOfTest: Torsin-1A (Homo sapiens)
- assayRemarks: torsin A binders from cell lysate, primary screen, small-molecule microarray, wild-type, 635/667 nm (AID 1149)
- assayConditions: COS7 hTOR1A-WT lysate, 635 nm fluorescence, higher = more signal
// keep it numeric: no unit symbol after the value

compound="O=C1OCCC/C=C\\[C@H]2OC34C=CCN(Cc5ccccc5)C(=O)[C@H]3N(CCO)C(=O)[C@@H]4C12 (some centres not stated)" metricname="composite z-score" measvalue=1.3
compound=COC(=O)[C@@]1(Cc2ccc(F)cc2)[C@H]2c3cc(C(=O)N(C)C)n(Cc4ccsc4Br)c3C[C@H]2CN1C(=O)c1ccccc1 metricname="composite z-score" measvalue=-0.0698
compound=COc1ccc(C(=O)Nc2ccc(CN3C(=O)[C@]4(O[C@H](CC(=O)N(CCO)Cc5ccccc5)[C@@H]([Si](C)(C)c5ccc(OC)cc5)[C@@H]4C)c4ccccc43)cc2)cc1 metricname="composite z-score" measvalue=0.689

[ask] Query (compound): O=C1C2C=CC(C(O)c3ccccn3)N(Nc3ccc([N+](=O)[O-])cc3)C2C(=O)N1c1ccccc1 (configuration not stated) ; field requested: composite z-score
[reply] -0.146

[ask] Same lookup for C[C@]1(C(=O)NCC(F)(F)F)c2ccccc2C(=O)N(Cc2cc(C(F)(F)F)cc(C(F)(F)F)c2)[C@H]1c1ccc(CO)cc1 , please.
[reply] -0.469

[ask] Same lookup for COCCOC(=O)N1C(=O)[C@@]2(c3cc(C#CC4=CCCCC4)ccc31)[C@H](C(=O)N1CCCCCCC1)[C@H]1C(=O)O[C@H](c3ccccc3)[C@H](c3ccccc3)N1[C@@H]2c1ccccc1OCCO , please.
[reply] 0.801

[ask] Same lookup for COC(=O)C[C@H]1O[C@]2(C(=O)N(C)c3ccccc32)[C@@H](C)[C@@H]1[Si](C)(C)c1ccccc1 , please.
[reply] 0.262

###

- subjectOfTest: Dickkopf-related protein 1 (Homo sapiens)
- assayRemarks: DKK1 binders on small-molecule microarrays, primary screen, biochemical, small-molecule microarray, 635 nm fluorescence scan (AID 1106);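 further: score merges emission near 667 nm with signal to noise over three replicate slides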
- assayConditions: DKK1 binding, higher = more signal
metricName: composite z-score
// keep it numeric: no unit symbol after the value

Completed entries (count: 5):
molecule=COCCOC(=O)N1C(=O)[C@@]2(c3cc(C#CCNC(N)=O)ccc31)[C@H](C(N)=O)[C@H]1C(=O)O[C@H](c3ccccc3)[C@H](c3ccccc3)N1[C@@H]2c1ccc(O)cc1 measvalue=0.0656
molecule=COc1ccc([Si](C)(C)[C@H]2[C@H](CCO)O[C@@]3(C(=O)N(Cc4ccccc4)c4ccc(NC(=O)[C@H](C)O)cc43)[C@@H]2C)cc1 measvalue=-0.119
molecule=[N-]=[N+]=NCc1ccccc1[C@H]1OC(c2ccc(OCCCO)cc2)=N[C@@]1(Cc1ccccc1N=[N+]=[N-])C(=O)N1CCOCC1 measvalue=-0.287
molecule=C=C(CCCC)C(=O)CC[C@H](OC(=O)c1ccccc1-c1ccccc1C(=O)O)c1cccc(OCCO)c1 measvalue=0.0668
molecule="CN1C(=O)C2C=CC(C(O)c3ccc(I)cc3)N(N(c3ccccc3)c3ccccc3)C2C1=O (configuration not stated)" measvalue=-0.421

[ask] Query (molecule): CN1C(=O)C2C=CC(C(O)c3cccs3)N(N(c3ccccc3)c3ccccc3)C2C1=O (configuration not stated) ; field requested: composite z-score
[reply] -0.351

[ask] Same lookup for COC(=O)C1=CC(c2ccc(CO)cc2)=CC(C2CC2)N(Cc2cc3c(cc2Br)OCO3)C=C1C(=O)OC (configuration not stated) , please.
[reply] 0.157

Attribution: PubChem BioAssay
